# system: KRas G12D (Homo sapiens, UniProt P01116, G12D)
# Sequence (P01116 1-169 isoform P01116-2 G12D): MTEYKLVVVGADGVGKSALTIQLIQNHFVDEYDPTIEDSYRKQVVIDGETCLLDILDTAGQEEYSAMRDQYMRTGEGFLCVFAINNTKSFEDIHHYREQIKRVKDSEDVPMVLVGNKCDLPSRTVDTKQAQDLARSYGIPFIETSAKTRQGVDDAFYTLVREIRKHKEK
# protocol.notes: KRas G12D Binding Assay (TR-FRET displacement of labeled tracer)
# details: TR-FRET displacement of Cy5 labelled tracer, biotinylated GDP-loaded KRAS G12D (aa 1:169), 60 minute incubation at 22° C.
parameter.measured: IC50

> print(dat)
                                   compound  parameter.measured   result
1  CN1CCC[C@H]1COc1nc2c(c(N3C[C@H]4CC[C@@H](C3)N4)n1)CCN(c1c(O)cccc1F)C2                IC50  > 10 µM
2  CN1CCC[C@H]1COc1nc2c(c(N3C[C@H]4C/C(=C\C#N)[C@@H](C3)N4)n1)CCN(c1cccc3cccc(Cl)c13)C2 (single isomer, unassigned)                IC50  > 10 µM

Pending compound:
Data point: CN1CCC[C@H]1COc1nc2c(c(N3C[C@H]4CC[C@@H](C3)N4)n1)CCN(c1nc(N)cc3ccccc13)C2 ; IC50 = > 10 µM
